system: Mycolicibacterium smegmatis; assay: Antimycobacterial activity against Mycobacterium smegmatis CMCC 93202 after 72 hrs by serial double dilution technique; type: functional; details: CMCC 93202, 72 h

| STRUCTURE_STRING | MIC, µM |
| --- | --- |
| CCO/N=C1\C(=O)N(CN2CCN(c3c(F)cc4c(=O)c(C(=O)O)cn(C5CC5)c4c3OC)CC2)c2ccccc21 | 2.77 |
| COc1c(N2CCN(CCN3C(=O)/C(=N\O)c4ccccc43)CC2)c(F)cc2c(=O)c(C(=O)O)cn(C3CC3)c12 | 11.4 |
| COc1c(N2CCN(CN3C(=O)C(=O)c4ccccc43)CC2)c(F)cc2c(=O)c(C(=O)O)cn(C3CC3)c12 | 24 |
| CCO/N=C1\C(=O)N(CN2CCN(c3c(F)cc4c(=O)c(C(=O)O)cn(C5CC5)c4c3OC)CC2)c2ccc(F)cc21 | 2.68 |

----------
assay: Cytotoxicity against african green monkey Vero cells after 72 hrs by MTT assat; settings: chlorocebus sabaeus, Vero cells
EXPERIMENTAL_READOUT: CC50 at 72 h (µM)

| STRUCTURE_STRING | UNIT_ABBREV | EXPERIMENTAL_VALUE |
| --- | --- | --- |
| CCO/N=C1\C(=O)N(CN2CCN(c3c(F)cc4c(=O)c(C(=O)O)cn(C5CC5)c4c3OC)CC2)c2ccccc21 | µM | 91.5 |
| CCO/N=C1\C(=O)N(CN2CCN(c3c(F)cc4c(=O)c(C(=O)O)cn(C5CC5)c4c3OC)CC2)c2ccc(F)cc21 | µM | 85.8 |
| COc1c(N2CCN(CN3C(=O)/C(=N\O)c4cc(F)ccc43)CC2)c(F)cc2c(=O)c(C(=O)O)cn(C3CC3)c12 | µM | 73.8 |
| COc1c(N2CCN(CN3C(=O)/C(=N\O)c4ccccc43)CC2)c(F)cc2c(=O)c(C(=O)O)cn(C3CC3)c12 | µM | 74.4 |
| COc1c(N2CCN(CN3C(=O)C(=O)c4cc(F)ccc43)CC2)c(F)cc2c(=O)c(C(=O)O)cn(C3CC3)c12 | µM | 70.6 |
| COc1c(N2CCN(CCN3C(=O)/C(=N\NC(N)=S)c4ccccc43)CC2)c(F)cc2c(=O)c(C(=O)O)cn(C3CC3)c12 | µM | 56.1 |
| COc1c(N2CCN(CN3C(=O)/C(=N\NC(N)=O)c4cc(F)ccc43)CC2)c(F)cc2c(=O)c(C(=O)O)cn(C3CC3)c12 | µM | 168 |

----------
test system: Mycobacterium tuberculosis; assay: microbe, parasite or virus in culture; assay type: functional; conditions: H37Rv ATCC 27294, 168 h
Description: Antimycobacterial activity against Mycobacterium tuberculosis H37Rv ATCC 27294 after 7 days by serial double dilution technique

| STRUCTURE_STRING | TARGET | UNIT_ABBREV | MIC |
| --- | --- | --- | --- |
| COc1c(N2CCN(CN3C(=O)C(=O)c4cc(F)ccc43)CC2)c(F)cc2c(=O)c(C(=O)O)cn(C3CC3)c12 | Mycobacterium tuberculosis | µM | 0.074 |
| CCO/N=C1\C(=O)N(CN2CCN(c3c(F)cc4c(=O)c(C(=O)O)cn(C5CC5)c4c3OC)CC2)c2ccccc21 | Mycobacterium tuberculosis | µM | 0.14 |
| CO/N=C1\C(=O)N(CCN2CCN(c3c(F)cc4c(=O)c(C(=O)O)cn(C5CC5)c4c3OC)CC2)c2ccccc21 | Mycobacterium tuberculosis | µM | 1.14 |
| O=C(O)c1cn(C2CC2)c2cc(N3CCNCC3)c(F)cc2c1=O | Mycobacterium tuberculosis | µM | 0.97 |
| CCO/N=C1\C(=O)N(CN2CCN(c3c(F)cc4c(=O)c(C(=O)O)cn(C5CC5)c4c3OC)CC2)c2ccc(F)cc21 | Mycobacterium tuberculosis | µM | 0.55 |
| COc1c(N2CCN(CN3C(=O)/C(=N\NC(N)=O)c4ccccc43)CC2)c(F)cc2c(=O)c(C(=O)O)cn(C3CC3)c12 | Mycobacterium tuberculosis | µM | 0.14 |
| COc1c(N2CCN(CN3C(=O)/C(=N\NC(N)=O)c4cc(F)ccc43)CC2)c(F)cc2c(=O)c(C(=O)O)cn(C3CC3)c12 | Mycobacterium tuberculosis | µM | 0.13 |
| NNC(=O)c1ccncc1 | Mycobacterium tuberculosis | µM | 0.29 |
| COc1c(N2CCN(CCN3C(=O)/C(=N\NC(N)=S)c4ccccc43)CC2)c(F)cc2c(=O)c(C(=O)O)cn(C3CC3)c12 | Mycobacterium tuberculosis | µM | 1.05 |
| COc1c(N2CCN(CN3C(=O)/C(=N\O)c4ccccc43)CC2)c(F)cc2c(=O)c(C(=O)O)cn(C3CC3)c12 | Mycobacterium tuberculosis | µM | 0.15 |
| CO/N=C1\C(=O)N(CN2CCN(c3c(F)cc4c(=O)c(C(=O)O)cn(C5CC5)c4c3OC)CC2)c2ccc(F)cc21 | Mycobacterium tuberculosis | µM | 0.14 |
| CO/N=C1\C(=O)N(CCN2CCN(c3c(F)cc4c(=O)c(C(=O)O)cn(C5CC5)c4c3OC)CC2)c2ccc(F)cc21 | Mycobacterium tuberculosis | µM | 1.1 |
| CO[C@H]1/C=C/O[C@@]2(C)Oc3c(C)c(O)c4c(O)c(c(/C=N/N5CCN(C)CC5)c(O)c4c3C2=O)NC(=O)/C(C)=C\C=C\[C@H](C)[C@H](O)[C@@H](C)[C@@H](O)[C@@H](C)[C@H](OC(C)=O)[C@@H]1C | Mycobacterium tuberculosis | µM | 0.19 |
| COc1c(N2CCN(CN3C(=O)C(=O)c4ccccc43)CC2)c(F)cc2c(=O)c(C(=O)O)cn(C3CC3)c12 | Mycobacterium tuberculosis | µM | 0.15 |
| COc1c(N2CCNCC2)c(F)cc2c(=O)c(C(=O)O)cn(C3CC3)c12 | Mycobacterium tuberculosis | µM | 0.22 |
